Target: HLA-A*0301 (human)
Experiment: competitive inhibition of 125I-labelled probe peptide binding to purified HLA; relative to standard peptide
Answer each item with its documented binding affinity ratio (IC50 of standard peptide / IC50 of test peptide).
Please state the value as a number alone, without comment.

Need binding affinity ratio (IC50 of standard peptide / IC50 of test peptide), item HLNPNKTKR (modifications not checked) [HBV POL 569 peptide …]
0.0025

Item: LTVNEKRR (modifications not checked) [HBV POL 99 peptide LTVNEKRR]
-0.0002

Try the binder GMDIDPYK (modifications not checked) [HBV NUC 29 peptide GMDIDPYK]
0.0006

Would you kindly repeat that for NLEDPASR (modifications not checked) [HBV NUC 75 peptide NLEDPASR] ?
-0.0002

Same for GIHLNPNKTK (modifications not checked) [HBV POL 567 peptide …]
0.0025
